Ref: paper PMC8770581

test: Absorption/emission maxima and fluorescence quantum yield of free ligand in PBS; assay type: physicochemical; details: free ligand in PBS
Please respond with reported Absmax for every item in the list.
Give bare numbers.

Please review the following examples before continuing.
COMPOUND	READOUT LABEL	VAL
O=C1/C(=C/C=C/c2ccc([N+](=O)[O-])cc2)Cc2ccc(O)cc21 [compound 13]	Absmax	356
O=C1C(=C/C=C/c2ccc(Br)cc2)C(=O)c2ccccc21 [compound 17]	Absmax	328
O=C1/C(=C\c2ccc(-c3ccc(CO)cc3)s2)CCc2ccccc21 [compound 49]	Absmax	372
O=C1/C(=C/C=C/c2ccc(Br)cc2)Cc2ccccc21 [compound 7]	Absmax	332

State the recorded Absmax for this entry: O=C(O)c1ccc(-c2ccc(/C=C/C=C3\Cc4ccc(O)cc4C3=O)cc2)cc1 [compound 32] 392

* * *

target: α-syn fibrils (Homo sapiens, UniProt P37840); assay: α-Synuclein fibril/ligand saturation binding assay; settings: from Kd Aβ and Kd α-syn
Label key: label 1 means Selectivity α-syn v/s Aβ under 3 x; label 0 means Selectivity α-syn v/s Aβ of 3 x or more.

MOLECULE	ASSIGNED LABEL
CN(C)c1ccc(/C=C/C=C2\CCc3ccccc3C2=O)cc1 [compound 24]	label 1

Hello, is Selectivity α-syn v/s Aβ of the following molecule strictly smaller than 3 x? COc1ncc(-c2ccc(/C=C3/Cc4ccccc4C3=O)s2)c(OC)n1 [compound 42] label 1

Same read-out for COc1cc(/C=C/C=C2\Cc3ccccc3C2=O)ccc1O [compound 8] ? label 0

Same read-out for COc1cc(/C=C/C=C2C(=O)c3ccccc3C2=O)ccc1O [compound 20] ? label 0

Same read-out for COc1cc(-c2ccc(/C=C/C=C3\Cc4ccccc4C3=O)cc2)ccc1O [compound 29] ? label 1

Same read-out for CN(C)c1ccc(/C=C/C=C2\Cc3ccccc3C2=O)cc1 [compound 9] ? label 0

* * *

Please respond with reported Emmax for every item in the list.
experiment: Absorption/emission maxima and fluorescence quantum yield of free ligand in PBS; assay type: physicochemical; conditions: free ligand in PBS

CHEMICAL STRING	VAL
CN(C)c1ccc(C=CC=C2C(=O)Oc3ccccc3C2=O)cc1	657
Nc1cccc(-c2ccc(/C=C3/Cc4ccccc4C3=O)s2)c1	563
O=C1C(=CC2=C(Cl)c3ccccc3CC2)C(=O)c2ccccc21	406
O=C1/C(=C\c2cc(-c3cccnc3)cs2)Cc2ccccc21	404
CN(C)c1ccc(/C=C/C=C2\Cc3ccc(O)cc3C2=O)cc1	614

Provide reported Emmax for each item, in the same order as listed.
1. CN(C)c1ncc(-c2ccc(/C=C3/CCc4ccccc4C3=O)s2)cn1
2. CN(C)c1ncc(-c2ccc(/C=C3/Cc4ccc(O)cc4C3=O)s2)cn1
3. O=C1/C(=C\c2ccc(-c3ccc(CO)cc3)s2)Cc2ccccc21
4. CN(C)c1ccc(/C=C/C=C2\CCc3ccccc3C2=O)cc1

1. 613
2. 572
3. 524
4. 565

* * *

Please respond with reported Fluorescence quantum yield Free ligand for every item in the list.
assay: Absorption/emission maxima and fluorescence quantum yield of free ligand in PBS; assay type: physicochemical; conditions: free ligand
Answers are plain numbers.

Please review the following examples before continuing.
CHEMICAL STRING	Fluorescence quantum yield Free ligand
COc1cc(-c2ccc(/C=C3/Cc4ccccc4C3=O)s2)ccc1O	0.0031
O=C(O)c1ccc(-c2ccc(/C=C/C=C3\Cc4ccc(O)cc4C3=O)cc2)cc1	0.0104
COc1cc(/C=C/C=C2\CCc3ccccc3C2=O)ccc1O	0.0051

Provide reported Fluorescence quantum yield Free ligand for each item, in the same order as listed.
1. O=C(O)c1ccc(-c2ccc(/C=C/C=C3C(=O)c4ccccc4C3=O)cc2)s1
2. COc1cc(/C=C/C=C2\Cc3ccccc3C2=O)ccc1O

[0.0097, 0.0079]

* * *

Please respond with reported Emmax for every item in the list.
experiment: Absorption/emission maxima and fluorescence quantum yield of free ligand in PBS; type: physicochemical; settings: free ligand in PBS
One number for each entry.

CHEMICAL STRING	VAL
COc1cc(/C=C/C=C2\Cc3ccccc3C2=O)ccc1O	542

Provide reported Emmax for each item, in the same order as listed.
1. N#Cc1ccc(-c2ccc(/C=C/C=C3\Cc4ccc(O)cc4C3=O)cc2)s1
2. COc1cc(/C=C/C=C2\Cc3cc(F)cc(F)c3C2=O)ccc1O
3. O=C1C(=Cc2cc3ccccc3[nH]2)C(=O)c2ccccc21
4. O=C1/C(=C/C=C/c2ccc(-c3ccc(CO)cc3)cc2)Cc2ccc(O)cc21
5. O=C(O)c1ccc(-c2ccc(/C=C/C=C3\Cc4ccc(O)cc4C3=O)cc2)cc1
6. O=C(O)c1ccc(-c2ccc(/C=C/C=C3C(=O)c4ccccc4C3=O)cc2)cc1
7. COc1cc(/C=C/C=C2C(=O)c3ccccc3C2=O)ccc1O
8. Cc1ccc2occ(/C=C3/Cc4ccc(O)cc4C3=O)c(=O)c2c1

[565, 545, 519, 540, 563, 409, 572, 388]

* * *

experiment: Absorption/emission maxima and fluorescence quantum yield of free ligand in PBS; format: physicochemical; settings: free ligand in PBS
Please respond with reported Absmax for every item in the list.
Numbers only.

Please review the following examples before continuing.
CHEMICAL STRING	Absmax
O=C1C(=C/C=C/c2ccc([N+](=O)[O-])cc2)C(=O)c2ccccc21	336
O=C1C(=C/C=C/c2ccccc2)C(=O)c2ccccc21	331
COc1cc(-c2ccc(/C=C3/Cc4ccccc4C3=O)s2)ccc1O	403
CN(C)c1ncc(-c2ccc(/C=C3/Cc4ccccc4C3=O)s2)cn1	410
COc1cc(/C=C/C=C2C(=O)c3ccccc3C2=O)ccc1O	402

Provide reported Absmax for each item, in the same order as listed.
1. O=C1C(=Cc2cc3ccccc3[nH]2)C(=O)c2ccccc21
2. COc1ncc(-c2ccc(/C=C3/Cc4ccccc4C3=O)s2)c(OC)n1
3. CN(C)c1ccc(C=CC=C2C(=O)Oc3ccccc3C2=O)cc1
4. COc1cc(/C=C/C=C2\Cc3cc(F)cc(F)c3C2=O)ccc1O

1. 384
2. 387
3. 440
4. 338

* * *

target: Aβ (1–40) fibrils (Homo sapiens); experiment: Aβ fibril/ligand saturation binding assay
Sequence (P05067 672-711): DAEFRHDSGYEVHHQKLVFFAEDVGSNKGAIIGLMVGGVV
READOUT LABEL: Kd

Please review the following examples before continuing.
COMPOUND	Kd
O=C(O)c1ccc(-c2ccc(/C=C/C=C3\Cc4ccc(O)cc4C3=O)cc2)cc1 [compound 32]	491 nM
COc1cc(/C=C/C=C2\CCc3ccccc3C2=O)ccc1O [compound 23]	144 nM
COc1cc(-c2ccc(/C=C/C=C3\Cc4ccccc4C3=O)cc2)ccc1O [compound 29]	52.5 nM
COc1ncc(-c2ccc(/C=C3/Cc4ccccc4C3=O)s2)c(OC)n1 [compound 42]	250 nM
O=C1/C(=C\c2ccc(-c3ccc(CO)cc3)s2)Cc2ccccc21 [compound 37]	393 nM

Provide reported Kd for each item, in the same order as listed.
1. O=C(O)c1ccc(-c2ccc(/C=C/C=C3C(=O)c4ccccc4C3=O)cc2)s1 [compound 35]
2. CN(C)c1ccc(/C=C/C=C2\CCc3ccccc3C2=O)cc1 [compound 24]
3. COc1cc(/C=C/C=C2C(=O)c3ccccc3C2=O)ccc1O [compound 20]
4. COc1cc(/C=C/C=C2\Cc3ccccc3C2=O)ccc1O [compound 8]
5. COc1cc(-c2ccc(/C=C3/Cc4ccccc4C3=O)s2)ccc1O [compound 39]
6. CN(C)c1ccc(/C=C/C=C2\Cc3ccccc3C2=O)cc1 [compound 9]

["337 nM", "165 nM", "154 nM", "140 nM", "257 nM", "157 nM"]

* * *

Please respond with reported Emmax Ligand + α-syn for every item in the list.
target: α-syn fibrils (Homo sapiens); assay: Fluorescent properties of ligand-α-syn fibril complex; type: physicochemical
Give bare numbers.

CHEMICAL STRING	VAL
CN(C)c1ccc(/C=C/C=C2\Cc3ccccc3C2=O)cc1	610

Provide reported Emmax Ligand + α-syn for each item, in the same order as listed.
1. COc1cc(/C=C/C=C2\Cc3ccccc3C2=O)ccc1O
2. COc1cc(-c2ccc(/C=C3/Cc4ccccc4C3=O)s2)ccc1O
3. COc1cc(/C=C/C=C2C(=O)c3ccccc3C2=O)ccc1O
4. O=C(O)c1ccc(-c2ccc(/C=C/C=C3C(=O)c4ccccc4C3=O)cc2)s1
5. CN(C)c1ccc(/C=C/C=C2\CCc3ccccc3C2=O)cc1
6. COc1ncc(-c2ccc(/C=C3/Cc4ccccc4C3=O)s2)c(OC)n1
7. COc1cc(-c2ccc(/C=C/C=C3\Cc4ccccc4C3=O)cc2)ccc1O

585
589
603
601
582
572
583

Provide reported Emmax Ligand + α-syn for each item, in the same order as listed.
1. O=C(O)c1ccc(-c2ccc(/C=C/C=C3\Cc4ccc(O)cc4C3=O)cc2)cc1
2. COc1cc(/C=C/C=C2\CCc3ccccc3C2=O)ccc1O

[586, 587]

* * *

experiment: Absorption/emission maxima and fluorescence quantum yield of free ligand in PBS; format: physicochemical; conditions: free ligand in PBS
Please respond with reported Absmax for every item in the list.

CHEMICAL STRING	Absmax
COc1cc(C=CC=C2C(=O)Oc3ccccc3C2=O)ccc1O	490
O=C1C(=CC2=C(Cl)c3ccccc3CC2)C(=O)c2ccccc21	354
O=C1/C(=C/C=C/c2ccc([N+](=O)[O-])cc2)Cc2cc(F)cc(F)c21	330
CN(C)c1ccc(C=CC=C2C(=O)Oc3ccc(Br)cc3C2=O)cc1	405
O=C(O)c1ccc(-c2ccc(/C=C/C=C3C(=O)c4ccccc4C3=O)cc2)cc1	358

Provide reported Absmax for each item, in the same order as listed.
1. N#Cc1ccc(-c2ccc(/C=C/C=C3\Cc4ccc(O)cc4C3=O)cc2)s1
2. COc1cc(/C=C/C=C2\CCc3ccccc3C2=O)ccc1O

1. 398
2. 401

Provide reported Absmax for each item, in the same order as listed.
1. CN(C)c1ncc(-c2ccc(/C=C3/CCc4ccccc4C3=O)s2)cn1
2. CN(C)c1ccc(/C=C/C=C2\Cc3ccccc3C2=O)cc1

442
450
